Data origin, for the record: ChEMBL document CHEMBL1124133

# Tested on: Rattus norvegicus
# Procedure Text: Hypolipidemic effects of compound on rat plasma Triglyceride (TG) level after by peroral administration at 100 mg/kg dose
# Type: functional
# Measurement Setup: route oral
Recorded Metric: TG (mg/dL)
Write it as a number; the unit mg/dL goes unstated.

Query string: Record lookup: for Rattus norvegicus, what TG belongs to CC(C)(CCCOc1ccc(CCCCCCc2ccccc2)cc1)C(=O)O ?
Result string: 86.2

Query string: How about this compound: CC(C)(CCCOc1ccc(CCCCCc2ccccc2)cc1)C(=O)O
Result string: 71.9

Query string: How about this compound: Cc1cnc(COC(=O)C(C)(C)CCCCOc2ccc(CCCCc3ccccc3)cc2)cn1
Result string: 36.9

Query string: How about this compound: CC(C)(CCCOc1ccc(CCCc2ccccc2)cc1)C(=O)O
Result string: 79.5

* * *

# Tested on: Rattus norvegicus
# Procedure Text: Hypolipidemic effects in rat fed a normal diet by peroral administration at 100 mg/kg dose.
# Format: functional
# Measurement Setup: route oral
Recorded Metric: Liver weight

Query string: So what does the record say about Liver weight for CC(C)(CCCCCCCOc1ccc(CCCCc2ccccc2)cc1)C(=O)O ?
Result string: <40.1 mg (g of body weight)-1

Query string: How about this molecule: CC(C)(CCCCCCCCOc1ccc(CCCCc2ccccc2)cc1)C(=O)O
Result string: <39.3 mg (g of body weight)-1

Query string: How about this molecule: CC(C)(CCCCCCCCCOc1ccc(CCCCc2ccccc2)cc1)C(=O)O
Result string: <38.2 mg (g of body weight)-1

Query string: How about this molecule: CCOC(=O)C(C)(C)Oc1ccc(Cl)cc1 [CLOFIBRATE]
Result string: <43.1 mg (g of body weight)-1

* * *

# System: Rattus norvegicus
# Procedure Text: Hypolipidemic effects in rat fed a high cholesterol diet (HC) by peroral administration at 100 mg/kg dose.
# Format: functional
# Measurement Setup: route oral
Recorded Metric: Liver weight

Query string: So what does the record say about Liver weight for CCOC(=O)C(C)(C)Oc1ccc(Cl)cc1 [CLOFIBRATE] ?
Result string: 52.8 mg (g of body weight)-1

Query string: How about this compound: CC(C)(CCCCCCCCCCOc1ccc(CCCCc2ccccc2)cc1)C(=O)O
Result string: 57.2 mg (g of body weight)-1

Query string: How about this compound: Cc1cnc(C(=O)OCC(C)(C)CCCCOc2ccc(CCCCc3ccccc3)cc2)c[n+]1[O-]
Result string: 57.8 mg (g of body weight)-1

Query string: How about this compound: CC(C)(CCCCCCCCOc1ccc(CCCCc2ccccc2)cc1)C(=O)O
Result string: 58.4 mg (g of body weight)-1

Query string: How about this compound: CC(C)(CCCCCCCCCOc1ccc(CCCCc2ccccc2)cc1)C(=O)O
Result string: 57.5 mg (g of body weight)-1

Query string: How about this compound: CC(C)(CCCCCCCOc1ccc(CCCCc2ccccc2)cc1)C(=O)O
Result string: 57.6 mg (g of body weight)-1

* * *

# Tested on: Rattus norvegicus
# Procedure Text: Hypolipidemic effects of compound on rat plasma Triglyceride (TG) level after peroral administration at 100 mg/kg dose
# Format: functional
# Measurement Setup: route oral
Recorded Metric: TG (mg/dL)
Write it as a number; the unit mg/dL goes unstated.

Query string: Record lookup: for Rattus norvegicus, what TG belongs to CC(C)(Oc1ccc(CCCCc2ccccc2)cc1)C(=O)O ?
Result string: 41.3

Query string: How about this compound: Cc1ccc(C)c(CCCCc2ccc(OCCCCC(C)(C)C(=O)O)cc2)c1
Result string: 34.4

Query string: How about this compound: CC(C)(CCCCOc1ccc(CCCCc2ccccc2)cc1)COC(=O)c1cccnc1
Result string: 46.7

Query string: How about this compound: CC(C)(CCCOc1ccc(CCCCc2ccccc2)cc1)C(=O)O
Result string: 76.9

* * *

# Tested on: Rattus norvegicus
# Procedure Text: Hypolipidemic effects in rat plasma high density lipoprotein cholesterol (HDLC) by peroral administration at 100 mg/kg dose
# Assay type: functional
# Measurement Setup: route oral
Exercise: state measured HDL-C for each of the molecules provided.
Write it as a number; the unit mg/dL goes unstated.

Query string: Record lookup: for Rattus norvegicus, what HDL-C belongs to Cc1cnc(C(=O)OCC(C)(C)CCCCOc2ccc(CCCCc3ccccc3)cc2)c[n+]1[O-] ?
Result string: 45.3

Query string: How about this molecule: CCOC(=O)C(C)(C)Oc1ccc(Cl)cc1 [CLOFIBRATE]
Result string: 29.4

Query string: How about this molecule: CC(C)(CCCCCCCCCCOc1ccc(CCCCc2ccccc2)cc1)C(=O)O
Result string: 48.6

* * *

Exercise: state measured HDL-C for each of the compounds provided.
# Tested on: Rattus norvegicus
# Procedure Text: Hypolipidemic effects in rat plasma high density lipoprotein cholesterol (HDLC) by peroral administration at 100 mg/kg dose
# Format: functional
# Measurement Setup: route oral

Query string: So what does the record say about HDL-C for CC(C)(CCCCCCCCCOc1ccc(CCCCc2ccccc2)cc1)C(=O)O ?
Result string: <55 mg/dL

Query string: How about this compound: CC(C)(CCCCCCCCOc1ccc(CCCCc2ccccc2)cc1)C(=O)O
Result string: <53.7 mg/dL

Query string: How about this compound: CC(C)(CCCCCCCOc1ccc(CCCCc2ccccc2)cc1)C(=O)O
Result string: <65.2 mg/dL
